Experiment: chemical genetic growth profiling, strain panel (AID 1159580);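 also: tested at 20 µM; growth read once vehicle control cultures reached saturation at 30 °C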
Conditions: S. cerevisiae deletion strains, growth OD, locus YJL095W, strain BCK1 (second series)
Screen size: about 5,500 compounds; about 2,000 (36%) were called active. Not shown: some 18% with an inconclusive outcome. Rule as the data show it: active = normalized growth mostly below about 0.91 (no sharp cut-off); inconclusive = no clear call, values can overlap the other calls; inactive = mostly above about 0.92. Some of the results follow.
Could you please pick one outcome from this set? active, inactive

Past entries and their recorded results:
molecule: CC(=O)OCC1=C(C(=O)O)N2C(=O)[C@@H](NC(=O)CSc3ccncc3)[C@H]2SC1
class: inactive
--
molecule: COc1ccc(CC(=O)c2ccc(O)cc2O)cc1
class: inactive
--
molecule: COc1ccc(-c2c(O)c3c(OC)c4c(cc3oc2=O)OC(C)(C)C=C4)cc1
class: inactive
--
molecule: NC(=NCCCCCCN=C(N)N=C(N)Nc1ccc(Cl)cc1)N=C(N)Nc1ccc(Cl)cc1
class: active
--
molecule: O=C1C=CC(=O)c2c(O)cccc21
class: inactive
--
molecule: O=c1c(O)c(-c2ccccc2)oc2ccc3occc3c12
class: active
--
molecule: COc1cc([C@@H]2c3cc4c(cc3[C@H](O)[C@H]3COC(=O)[C@H]23)OCO4)cc(OC)c1OC
class: inactive
--
molecule: COc1ccc(NS(=O)(=O)c2ccc(N)cc2)nn1
class: inactive
--
molecule: Cn1cnc2c1c(=O)[nH]c(=O)n2C
class: inactive
--
molecule: CC(=O)OC1CCC2(O)CC1(C)CCC1C2CC1(C)C (stereo unspecified)
class: inactive

Exercise: Can you look up the reported call for COCC1=C(C(=O)OC(C)OC(=O)OC(C)C)N2C(=O)[C@@H](NC(=O)/C(=N\OC)c3csc(N)n3)[C@H]2SC1 (stereo partly specified) for me?
Key: inactive

Exercise: Can you look up the reported call for C[C@H]1C(=O)CCC2[C@]3(C)CC[C@@]4(C)C5CC(C)(C)CC[C@]5(C)CC[C@]4(C)C3CC[C@@]21C (stereo partly specified) for me?
Key: inactive

Exercise: Can you look up the reported call for COc1ccc([C@@H](C)C(=O)c2ccc(O)cc2O)cc1 for me?
Key: inactive

Exercise: Can you look up the reported call for CC(=O)O[C@@H]1C2CC[C@@H]3C1(C[C@@H](O)[C@@]1(O)[C@@H](C[C@H](O)C1(C)C)[C@]3(C)O)C[C@@]2(C)O (stereo partly specified) for me?
Key: inactive

Exercise: Can you look up the reported call for C[N+]12CCC(CC1)C(OC(=O)C(O)(c1ccccc1)c1ccccc1)C2 (stereo unspecified) for me?
Key: inactive

Exercise: Can you look up the reported call for O=c1c(O)c(-c2ccc(O)cc2)oc2ccccc12 for me?
Key: active

---

Assay: chemical genetic growth profiling, strain panel (AID 1159580)
Settings: S. cerevisiae deletion strains, growth OD, locus YGR052W, strain FMP48, stronger effect = lower value
Hit rate of the full screen: of about 5,500 compounds, about 2,000 (36%) were called active. About 18% were inconclusive and are not listed. The list shows a part of the results.
normalized growth strictly under 0.9 means y; at 0.9 or over means n.

Past entries and their recorded results:
molecule: Cc1oc(C(C)(C)C)cc1-c1cc(NC(=O)c2ccccc2)n[nH]1
class: n
--
molecule: COC(=O)c1cc(I)c(OC(C)=O)c(I)c1
class: n
--
molecule: O=C(Nc1ccc(F)cc1F)c1cc(Cl)ccc1O
class: n
--
molecule: Cn1cc(Br)c(-c2cccc(NS(=O)(=O)c3ccc(Cl)cc3)c2)n1
class: n
--
molecule: O=S(=O)(Nc1c(F)cccc1F)c1ccc(Cl)c(Cl)c1
class: n

Exercise: Criterion: normalized growth strictly below 0.9. Is it met by O=[N+]([O-])c1ccc(NCc2ccc(Cl)c(Cl)c2)nc1 ?
Key: y

Exercise: Criterion: normalized growth strictly below 0.9. Is it met by CC(C)OC(=O)Nc1cc(Cl)cc(Cl)c1 ?
Key: y

---

Assay: chemical genetic growth profiling, strain panel (AID 1159580)
Details: S. cerevisiae deletion strains, growth OD, locus YER155C, strain BEM2 (second series), stronger effect = lower value
In all, about 5,500 compounds went through this assay and about 2,000 (36%) were called active. Roughly 18% stayed inconclusive and do not appear here. This is one part of the list.
normalized growth strictly under 1 means Condition met; at 1 or over means Condition not met.

Past entries and their recorded results:
compound: CN1CCN(C2=Nc3cc(Cl)ccc3Nc3ccccc32)CC1
class: Condition met

compound: COC1=CC23CCCN2CCc2cc4c(cc2C3C1O)OCO4 (stereo not drawn)
class: Condition not met

compound: O=C(/C=C/c1ccccc1)c1ccc(O)cc1O
class: Condition met

Exercise: Criterion: normalized growth strictly below 1. Is it met by Oc1cccc2cccnc12 ?
Key: Condition met

Exercise: Criterion: normalized growth strictly below 1. Is it met by CC(=O)c1c(O)cc(O)cc1O ?
Key: Condition met

Exercise: Criterion: normalized growth strictly below 1. Is it met by O=C1c2cccc(O)c2C(=O)c2c(O)cccc21 ?
Key: Condition met

Exercise: Criterion: normalized growth strictly below 1. Is it met by COc1ccc(-c2c(O)c3c(OC)c4c(cc3oc2=O)OC(C)(C)C=C4)cc1 ?
Key: Condition met

Exercise: Criterion: normalized growth strictly below 1. Is it met by COc1cc(OC)c2c(OC)c(-c3ccc4c(c3)OCO4)c(=O)oc2c1 ?
Key: Condition met

Exercise: Criterion: normalized growth strictly below 1. Is it met by CC(C)CCCC(C)N (stereo not drawn) ?
Key: Condition not met

Exercise: Criterion: normalized growth strictly below 1. Is it met by O=C(/C=C/c1ccc(O)cc1)c1ccc(O)cc1O ?
Key: Condition met

Exercise: Criterion: normalized growth strictly below 1. Is it met by O=C1C=CC(=O)c2c(O)cccc21 ?
Key: Condition met

---

Test: chemical genetic growth profiling, strain panel (AID 1159580);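 also: tested at 20 µM; growth read once vehicle control cultures reached saturation at 30 °C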
Conditions: S. cerevisiae deletion strains, growth OD, locus YFR003C, strain YPI1
In all, about 5,500 compounds went through this assay and about 2,000 (36%) were called active. Inconclusive results (about 18%) are left out. Cut-off read from the data, not from the text of the source: active = normalized growth mostly below about 0.91 (no sharp cut-off); inconclusive = no clear call, values can overlap the other calls; inactive = mostly above about 0.92. The list shows a part of the results.
Could you please pick one outcome from this set? active, inactive

chemical-string: CC(=O)c1ccc(Sc2ccccc2)c([N+](=O)[O-])c1
class: active
--
chemical-string: O=C(Nc1cc(Cl)cc(Cl)c1)c1cc(Br)ccc1O
class: inactive
--
chemical-string: COC(=S)Nc1cc(Cl)cc(Cl)c1
class: inactive

API: the following record is the query input.
Exercise: Can you look up the reported call for O=[N+]([O-])c1ccc(Sc2ccccc2)c([N+](=O)[O-])c1 for me?
Key: active

---

Test: chemical genetic growth profiling, strain panel (AID 1159580);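 also: tested at 20 µM; growth read once vehicle control cultures reached saturation at 30 °C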
Conditions: S. cerevisiae deletion strains, growth OD, locus YMR231W, strain pep5
The campaign covered roughly 5,500 compounds. About 2,000 (36%) were called active. Another 18% or so got no clear call; they are omitted. No stated cut-off is given here; in the data, active means normalized growth mostly below about 0.91 (no sharp cut-off); inconclusive means no clear call, values can overlap the other calls; inactive means mostly above about 0.92. This is one part of the list.
Could you please pick one outcome from this set? Yes (active), No (inactive)

Past entries and their recorded results:
molecule: O=C(O)c1cc(=O)c2ccccc2[nH]1
class: No
//
molecule: NS(=O)(=O)c1cc2c(cc1Cl)NCNS2(=O)=O
class: No
//
molecule: O=C1C=CC(=O)c2c(O)cccc21
class: No
//
molecule: COc1ccc(NS(=O)(=O)c2ccc(N)cc2)nn1
class: No
//
molecule: CC[C@H]1OC(=O)[C@H](C)[C@@H](O[C@H]2C[C@@](C)(OC)[C@@H](O)[C@H](C)O2)[C@H](C)[C@@H](O[C@@H]2O[C@H](C)C[C@H](N(C)C)[C@H]2O)[C@](C)(O)C[C@@H](C)/C(=N/OCOCCOC)[C@H](C)[C@@H](O)[C@]1(C)O
class: No
//
molecule: COCC1=C(C(=O)OC(C)OC(=O)OC(C)C)N2C(=O)[C@@H](NC(=O)/C(=N\OC)c3csc(N)n3)[C@H]2SC1 (stereo partly drawn)
class: No
//
molecule: O=C1C=C(O)c2ccccc2C1=O
class: Yes
//
molecule: COc1ccccc1OCC(O)COC(N)=O (stereo not drawn)
class: No
//
molecule: O=C1c2cccc(O)c2C(=O)c2c(O)cccc21
class: Yes
//
molecule: NNCc1ccccc1
class: No

Exercise: Can you look up the reported call for CN1CCC[C@H]1c1cccnc1 for me?
Key: No

Exercise: Can you look up the reported call for O=C1c2ccccc2C(=O)c2ccccc21 for me?
Key: No

Exercise: Can you look up the reported call for CC(NC(C)(C)C)C(=O)c1cccc(Cl)c1 (stereo not drawn) for me?
Key: No

---

Test: chemical genetic growth profiling, strain panel (AID 1159580);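 also: tested at 20 µM; growth read once vehicle control cultures reached saturation at 30 °C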
Details: S. cerevisiae deletion strains, growth OD, locus YKL048C, strain ELM1, stronger effect = lower value
The whole screen tested about 5,500 compounds, of which about 2,000 (36%) were called active. About 18% were inconclusive and are not listed. This is one part of the list.
normalized growth strictly under 0.9 means satisfied; at 0.9 or over means not satisfied.

Past entries and their recorded results:
chemical-string: O=[N+]([O-])c1cc(C(F)(F)F)ccc1Sc1n[nH]c(-c2cc(Cl)cc(Cl)c2)n1
class: satisfied
//
chemical-string: Cc1csc2c(N3CCN(C(=S)Nc4ccc(C(F)(F)F)cc4)CC3)ncnc12
class: not satisfied
//
chemical-string: Cc1cc(Sc2c([N+](=O)[O-])cc(C(F)(F)F)cc2[N+](=O)[O-])c(Cl)cc1Cl
class: not satisfied
//
chemical-string: Cc1csc2ncnc(N3CCN(C(=O)Nc4ccc(SC(F)(F)F)cc4)CC3)c12
class: not satisfied
//
chemical-string: O=C(NCc1ccc2c(c1)OCO2)c1cc2ccccc2s1
class: satisfied

API: the following record is the query input.
Exercise: Criterion: normalized growth strictly below 0.9. Is it met by CC(C)Sc1c(Cl)cccc1NC(=O)Nc1cccc(C(F)(F)F)c1 ?
Key: not satisfied
